Values compiled from paper PMC10931632.

List of IC50 tested on human IRAP (Homo sapiens).
Sequence (Q9UIQ6 whole entry): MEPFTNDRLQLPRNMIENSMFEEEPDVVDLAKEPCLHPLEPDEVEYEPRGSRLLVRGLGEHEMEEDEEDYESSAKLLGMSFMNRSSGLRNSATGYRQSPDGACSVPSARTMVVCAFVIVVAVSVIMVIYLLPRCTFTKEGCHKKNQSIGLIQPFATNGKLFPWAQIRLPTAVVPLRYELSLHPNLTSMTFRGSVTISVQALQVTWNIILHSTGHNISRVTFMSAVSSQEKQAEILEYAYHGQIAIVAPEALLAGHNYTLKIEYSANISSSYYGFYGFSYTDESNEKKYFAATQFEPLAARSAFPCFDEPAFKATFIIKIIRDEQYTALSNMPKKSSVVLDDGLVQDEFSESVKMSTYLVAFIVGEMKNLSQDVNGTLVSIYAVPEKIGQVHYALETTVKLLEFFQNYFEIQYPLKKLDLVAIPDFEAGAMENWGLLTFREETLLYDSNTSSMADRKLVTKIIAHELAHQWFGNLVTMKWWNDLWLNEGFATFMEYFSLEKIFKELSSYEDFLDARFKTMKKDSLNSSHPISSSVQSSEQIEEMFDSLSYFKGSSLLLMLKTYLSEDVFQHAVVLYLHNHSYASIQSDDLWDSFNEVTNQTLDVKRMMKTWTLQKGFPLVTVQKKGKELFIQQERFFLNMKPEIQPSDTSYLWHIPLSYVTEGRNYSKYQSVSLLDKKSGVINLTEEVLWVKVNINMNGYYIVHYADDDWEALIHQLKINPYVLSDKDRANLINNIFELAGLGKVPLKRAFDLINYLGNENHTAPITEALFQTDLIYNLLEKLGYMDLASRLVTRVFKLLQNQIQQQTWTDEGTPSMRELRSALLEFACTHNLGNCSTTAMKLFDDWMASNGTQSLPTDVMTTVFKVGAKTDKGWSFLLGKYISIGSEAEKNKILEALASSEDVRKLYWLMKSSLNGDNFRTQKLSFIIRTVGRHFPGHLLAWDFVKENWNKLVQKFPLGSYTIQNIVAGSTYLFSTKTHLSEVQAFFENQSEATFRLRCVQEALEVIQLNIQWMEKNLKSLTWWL
property_label: IC50 (µM)

1: COc1ccccc1-c1nc(C2CCCN2C(=O)N[C@H](C)c2ccccc2)n2ccccc12 (mixture of isomers)
2: COc1ccccc1-c1nc(C2CCCN2C(=O)N[C@@H](C)c2ccccc2)n2ccccc12 (mixture of isomers)
*Q* Exercise: compare 1 and 2 ; which one has the greater IC50? Write the label of whichever entry you select.
*A* 1
(1: 50 µM, 2: 1.3 µM)

* * *

experiment_description: Human liver microsome intrinsic clearance
Assay type: in vitro ADME
condition_details: human liver microsomes; read-out: HLM t ½
property_label: half-life

COc1ccccc1-c1nc(CN(C)C(=O)N[C@@H](C)c2ccccc2)n2ccccc12; < 2.3 min

Turning to the following compound.
*Q* Entry COc1ccccc1-c1nc(C2CCCN2C(=S)NCc2ccccc2)n2ccccc12 (centres unmarked) has what half-life?
*A* < 2.3 min

* * *

assayed_target: human recombinant soluble IRAP (sIRAP) (Homo sapiens)
Construct: as well as the recombinant soluble enzyme (sIRAP)
Sequence (Q9UIQ6 155-1025 limits assumed): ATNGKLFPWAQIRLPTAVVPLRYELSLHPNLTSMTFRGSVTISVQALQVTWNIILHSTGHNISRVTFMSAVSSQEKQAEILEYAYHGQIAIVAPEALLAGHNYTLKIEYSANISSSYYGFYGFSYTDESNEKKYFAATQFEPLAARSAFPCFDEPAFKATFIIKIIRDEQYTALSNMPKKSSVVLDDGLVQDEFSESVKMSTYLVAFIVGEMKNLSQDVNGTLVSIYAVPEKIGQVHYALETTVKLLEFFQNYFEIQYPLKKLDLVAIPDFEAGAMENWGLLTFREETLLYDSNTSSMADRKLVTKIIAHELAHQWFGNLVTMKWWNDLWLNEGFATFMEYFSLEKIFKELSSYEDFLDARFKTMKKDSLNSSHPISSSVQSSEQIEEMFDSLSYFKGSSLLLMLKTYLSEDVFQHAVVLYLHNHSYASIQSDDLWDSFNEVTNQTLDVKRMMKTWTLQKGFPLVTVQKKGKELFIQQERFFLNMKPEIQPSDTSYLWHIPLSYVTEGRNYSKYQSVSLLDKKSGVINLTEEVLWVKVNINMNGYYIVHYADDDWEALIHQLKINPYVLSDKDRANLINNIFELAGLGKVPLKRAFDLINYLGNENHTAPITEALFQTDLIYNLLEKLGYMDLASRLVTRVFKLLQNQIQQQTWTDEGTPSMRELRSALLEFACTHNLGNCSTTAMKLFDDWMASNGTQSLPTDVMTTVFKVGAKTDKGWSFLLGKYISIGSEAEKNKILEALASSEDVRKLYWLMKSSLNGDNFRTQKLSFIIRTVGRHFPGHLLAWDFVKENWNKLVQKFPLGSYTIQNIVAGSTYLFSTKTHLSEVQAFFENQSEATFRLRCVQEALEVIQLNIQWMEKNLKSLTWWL
experiment_description: Inhibition of human recombinant soluble IRAP (sIRAP)
condition_details: human recombinant soluble enzyme
property_label: pIC50
Conceptually, pIC50 converts a concentration in mol/L into minus its log10.

*Q* Entry COc1ccccc1-c1nc(C2CCCN2C(=O)N[C@@H](C)c2ccccc2)n2ccccc12 (mixture of isomers) has what pIC50?
*A* 6.00

* * *

experiment_description: Rat hepatocytes intrinsic clearance
Type: in vitro ADME
condition_details: read-out: Rat hep. t ½
property_label: half-life

COc1ccccc1-c1nc(CN(C)C(=O)N[C@@H](C)c2ccccc2)n2ccccc12; < 2.3 min

Turning to the following molecule.
*Q* Entry COc1ccccc1-c1nc(C2CCCN2C(=S)NCc2ccccc2)n2ccccc12 (centres unmarked) has what half-life?
*A* < 2.3 min

* * *

experiment_description: Human plasma protein binding
Format: in vitro ADME
condition_details: read-out: PPB
property_label: fraction unbound

COc1ccccc1-c1nc(C2CCCN2C(=S)NCc2ccccc2)n2ccccc12 (centres unmarked) [Compound 6v]; 0.007
COc1ccccc1-c1nc(CN(C)C(=O)N[C@@H](C)c2ccccc2)n2ccccc12 [Compound 6m]; 0.006

* * *

experiment_description: Rat hepatocytes intrinsic clearance
Format: in vitro ADME
condition_details: read-out: Rat hep. Clint
property_label: hepatocyte CLint

COc1ccccc1-c1nc(CN(C)C(=O)N[C@@H](C)c2ccccc2)n2ccccc12; > 300 µL/min/1e6 cells

Turning to the following molecule.
*Q* Entry COc1ccccc1-c1nc(C2CCCN2C(=S)NCc2ccccc2)n2ccccc12 (centres unmarked) has what hepatocyte CLint?
*A* > 300 µL/min/1e6 cells

* * *

experiment_description: LogD7.4 (DMPK Wave 1 panel)
Assay type: physicochemical
condition_details: pH 7.4; average ± SD of three test occasions
property_label: logD

COc1ccccc1-c1nc(CN(C)C(=O)N[C@@H](C)c2ccccc2)n2ccccc12 [Compound 6m]; 2.9
COc1ccccc1-c1nc(C2CCCN2C(=S)NCc2ccccc2)n2ccccc12 (centres unmarked) [Compound 6v]; 3.3

* * *

experiment_description: Dried DMSO solubility in aqueous phosphate buffer pH 7.4
Format: physicochemical
condition_details: thermodynamic from solid; aqueous phosphate buffer (PBS) at pH 7.4; read-out: Sol. (dried DMSO solubility)
Method: Pre-clinical profiling of the compounds was performed at AstraZeneca R&D in Gothenburg, Sweden, applying an integrated panel of assays referred to as the DMPK Wave 1 panel.
property_label: solubility (µM)
Value expressed in µM; do not type the unit.

*Q* Entry COc1ccccc1-c1nc(CN(C)C(=O)N[C@@H](C)c2ccccc2)n2ccccc12 has what solubility?
*A* 55

* * *

experiment_description: Human liver microsome intrinsic clearance
Assay type: in vitro ADME
condition_details: human liver microsomes; read-out: HLM Clint
property_label: microsomal CLint

COc1ccccc1-c1nc(CN(C)C(=O)N[C@@H](C)c2ccccc2)n2ccccc12 [Compound 6m]; > 300 µL/min/mg

Turning to the following molecule.
*Q* Entry COc1ccccc1-c1nc(C2CCCN2C(=S)NCc2ccccc2)n2ccccc12 (centres unmarked) [Compound 6v] has what microsomal CLint?
*A* > 300 µL/min/mg
